Here the recorded solubility at 24 h is given for each entry.
Assay: physchem
Details: pH 6.8, aqueous buffer, kinetic from dmso stock, Solubility (pH 6.8)
Provide only the numeric value, understood in µg/mL.

Inquiry: // query solubility at 24 h value for entry Cc1ccc(OCc2ccc3c(c2)CCN(C2CCOCC2)C3)c(-c2csc(N3CC[C@@]4(C(=O)O)C[C@H]4C3)n2)c1 [Compound 110]
Reply text: 0.58

Further cases:
Inquiry: // query solubility at 24 h value for entry CO[C@@H]1CN(c2cccc(-c3cccc(C)c3OCc3cc(C)c4c(c3)CCN(C3COC3)CC4)n2)CC[C@@H]1C(=O)O [Compound 291]
Reply text: 62.3

Inquiry: // query solubility at 24 h value for entry Cc1ccc(OCc2ccc3c(c2)CCN(C2CCOCC2)C3)c(-c2csc(N3C[C@@H]4C[C@]4(C(=O)O)C3)n2)c1 [Compound 145]
Reply text: 28

Inquiry: // query solubility at 24 h value for entry COC[C@H]1N(c2nc(-c3cc(C)ccc3OCc3ccc4c(c3C)CCN(C3CCOCC3)C4)cs2)C[C@@H]2C[C@@]21C(=O)O [Compound 164]
Reply text: 59

Inquiry: // query solubility at 24 h value for entry CO[C@@H]1CN(c2cccc(-c3cccc(C)c3OCc3ccc4c(c3)C(C)(C)CN(C3CCOCC3)CC4)n2)CC[C@@H]1C(=O)O [Compound 324]
Reply text: 77.5

----------
Target: human soluble guanylate cyclase alpha 1 and beta 1 subunits (sGC) (Homo sapiens (Human), UniProt Q02108+Q02153)
Sequence (Q02108 whole entry partner): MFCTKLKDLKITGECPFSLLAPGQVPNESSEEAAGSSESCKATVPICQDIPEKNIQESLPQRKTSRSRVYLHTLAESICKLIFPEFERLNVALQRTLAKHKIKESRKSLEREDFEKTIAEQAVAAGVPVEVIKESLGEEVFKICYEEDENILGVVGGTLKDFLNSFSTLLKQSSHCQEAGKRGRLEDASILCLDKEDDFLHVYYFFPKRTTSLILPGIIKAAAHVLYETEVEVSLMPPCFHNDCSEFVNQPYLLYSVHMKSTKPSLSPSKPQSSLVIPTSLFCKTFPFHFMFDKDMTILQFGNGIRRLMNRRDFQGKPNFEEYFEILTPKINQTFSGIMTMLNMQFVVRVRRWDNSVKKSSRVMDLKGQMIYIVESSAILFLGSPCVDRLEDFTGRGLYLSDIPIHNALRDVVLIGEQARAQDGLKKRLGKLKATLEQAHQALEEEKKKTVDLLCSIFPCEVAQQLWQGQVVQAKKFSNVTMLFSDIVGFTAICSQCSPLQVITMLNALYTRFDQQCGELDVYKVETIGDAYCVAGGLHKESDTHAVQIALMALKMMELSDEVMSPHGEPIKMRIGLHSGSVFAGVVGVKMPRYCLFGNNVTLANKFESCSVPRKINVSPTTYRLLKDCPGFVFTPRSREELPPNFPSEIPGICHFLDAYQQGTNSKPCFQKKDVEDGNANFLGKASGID
Sequence (Q02153 whole entry): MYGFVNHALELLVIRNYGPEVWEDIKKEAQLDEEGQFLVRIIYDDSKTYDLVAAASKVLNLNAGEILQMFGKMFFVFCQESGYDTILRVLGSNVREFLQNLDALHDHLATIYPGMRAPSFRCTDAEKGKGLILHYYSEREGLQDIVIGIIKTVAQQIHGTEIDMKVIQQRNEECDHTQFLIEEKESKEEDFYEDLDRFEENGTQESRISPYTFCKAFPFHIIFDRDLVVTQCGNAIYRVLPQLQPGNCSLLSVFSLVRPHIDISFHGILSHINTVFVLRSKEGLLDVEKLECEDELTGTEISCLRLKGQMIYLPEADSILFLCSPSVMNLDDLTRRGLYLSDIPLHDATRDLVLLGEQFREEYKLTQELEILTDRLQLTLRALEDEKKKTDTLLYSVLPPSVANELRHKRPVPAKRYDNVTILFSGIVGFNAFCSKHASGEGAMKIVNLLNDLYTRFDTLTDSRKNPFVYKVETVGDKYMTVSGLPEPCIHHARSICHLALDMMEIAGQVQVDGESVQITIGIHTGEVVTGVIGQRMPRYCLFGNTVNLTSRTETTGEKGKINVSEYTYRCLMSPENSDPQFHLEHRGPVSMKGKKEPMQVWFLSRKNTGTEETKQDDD
Experiment: sGC cellular activator assay (cGMP, HTRF), in the presence and absence of 50% human serum
Conditions: CHO cells stably expressing human sGC alpha 1/beta 1, preincubated with 40 microM ODQ; cGMP by HTRF; Table 2 does not state whether with or without 50% human serum
Define the label as Yes when EC50 is strictly less than 50 nM and as No in all remaining cases.

Inquiry: Identify whether the compound CO[C@@H]1CN(c2nc(-c3cc(F)cc(C)c3OCc3ccc4c(c3C)CCN(C3COC3)CC4)cs2)CC[C@@H]1C(=O)O [Compound 327] records EC50 below 50 nM.
Reply text: Yes

Inquiry: Identify whether the compound COc1cc(COc2c(Cl)cccc2-c2csc(N3CC[C@H](C(=O)O)[C@H](OC)C3)n2)cc2c1CN(C1CCOCC1)CC2 [Compound 265] records EC50 below 50 nM.
Reply text: Yes

Inquiry: Identify whether the compound Cc1ccc(OCc2ccc3c(c2C)CCN(C2CCOCC2)C3)c(-c2csc(N3CC[C@@]4(C(=O)O)C[C@H]4C3)n2)c1 [Compound 115] records EC50 below 50 nM.
Reply text: Yes

Further cases:
Inquiry: Identify whether the compound Cc1cccc(-c2csc(N3C[C@@H]4C[C@]4(C(=O)O)C3)n2)c1OCc1ccc2c(c1C)CCN(C1CCC1)C2 [Compound 137] records EC50 below 50 nM.
Reply text: No

----------
Experiment: physchem
Settings: pH 6.8, aqueous buffer, kinetic from dmso stock, Solubility (pH 6.8)
Here the recorded solubility at 24 h is given for each entry.

Inquiry: // query solubility at 24 h value for entry CO[C@@H]1CN(c2cccc(-c3cc(C)ccc3OCc3cc(C)c4c(c3)CCN(C3CCOC3)C4)n2)CC[C@@H]1C(=O)O (stereo partly drawn)
Reply text: 64 µg/mL

Inquiry: // query solubility at 24 h value for entry `Cc1c(COc2ccccc2-c2ccnc(N3CC[C@@]4(C(=O)O)C[C@H]4C3)n2)ccc2c1CCN(C1CCOCC1)C2`
Reply text: 42 µg/mL

Inquiry: // query solubility at 24 h value for entry `CCO[C@H]1CN(c2nccc(-c3cccc(C)c3OCc3cc4c(c(OC)c3)CN(C3CCOCC3)CC4)n2)CC[C@H]1C(=O)O`
Reply text: 85.4 µg/mL

Inquiry: // query solubility at 24 h value for entry `Cc1ccc(OCc2ccc3c(c2C)CCN(C2CCOCC2)C3)c(-c2csc(N3CC[C@@]4(C(=O)O)C[C@H]4C3)n2)c1`
Reply text: 5.1 µg/mL

Inquiry: // query solubility at 24 h value for entry COC[C@H]1N(c2cccc(-c3cccc(C)c3OCc3ccc4c(c3)CCN(C3CCOC3)C4)n2)C[C@@H]2C[C@@]21C(=O)O (mixture of isomers)
Reply text: 81 µg/mL

Note: attention shifts to another entry.
Inquiry: // query solubility at 24 h value for entry `COC[C@H]1N(c2cccc(-c3cccc(Cl)c3OCc3cc(C)c4c(c3)CCN(C3CCOCC3)C4)n2)C[C@@H]2C[C@@]21C(=O)O`
Reply text: 132 µg/mL

----------
Here the recorded solubility at 24 h is given for each entry.
Assay: physchem
Conditions: pH 6.8, aqueous buffer, kinetic from dmso stock, Solubility (pH 6.8)
Provide only the numeric value, understood in µg/mL.

Example entries and their recorded answers appear below.
Inquiry: // query solubility at 24 h value for entry COC[C@H]1N(c2cccc(-c3cccc(C)c3OCc3ccc4c(c3C)CCN(C3COC3)CC4)n2)C[C@@H]2C[C@@]21C(=O)O [Compound 60]
Reply text: 79

Inquiry: // query solubility at 24 h value for entry Cc1cccc(-c2cccc(N3CC4OCC3C4C(=O)O)n2)c1OCc1ccc2c(c1C)CCN(C1CCOCC1)C2 (stereo not shown) [Compound 214]
Reply text: 87.9

Inquiry: // query solubility at 24 h value for entry Cc1cccc(-c2ccnc(N3C[C@@H]4C[C@]4(C(=O)O)C3)n2)c1OCc1ccc2c(c1C)CCN(C1CCOCC1)C2 [Compound 189]
Reply text: 66

Inquiry: // query solubility at 24 h value for entry COC[C@H]1N(c2cccc(-c3cccc(C)c3OCc3ccc4c(c3)CCN(C3COC3)C4)n2)C[C@@H]2C[C@@]21C(=O)O [Compound 43]
Reply text: 97

Inquiry: // query solubility at 24 h value for entry Cc1cccc(-c2cccc(N3C[C@@H]4C[C@]4(C(=O)O)C3)n2)c1OCc1ccc2c(c1)CCN(C1COC1)CC2 [Compound 32]
Reply text: 50

Inquiry: // query solubility at 24 h value for entry CO[C@H]1CN(c2cccc(-c3cccc(C)c3OCc3cc(F)c4c(c3)CCN(C3CCOCC3)CC4)n2)CC[C@H]1C(=O)O [Compound 273]
Reply text: 64.3

Inquiry: // query solubility at 24 h value for entry Cc1ccc(OCc2ccc3c(c2)CCN(C2CCOC2)C3)c(-c2csc(N3CC[C@@]4(C(=O)O)C[C@H]4C3)n2)c1 (stereo partly shown) [Compound 114]
Reply text: 5

Inquiry: // query solubility at 24 h value for entry Cc1cccc(-c2cccc(N3C[C@@H]4C[C@]4(C(=O)O)C3)n2)c1OCc1ccc2c(c1C)CCN(C1CCOCC1)C2 [Compound 21]
Reply text: 70

Further cases:
Inquiry: // query solubility at 24 h value for entry Cc1cccc(-c2csc(N3CC[C@@]4(C(=O)O)C[C@H]4C3)n2)c1OCc1ccc2c(c1)CCN(C1COC1)C2 [Compound 85]
Reply text: 55

Inquiry: // query solubility at 24 h value for entry CCc1cc(COc2c(C)cccc2-c2csc(N3CC[C@@H](C(=O)O)[C@@H](OC)C3)n2)cc2c1CN(C1CCOCC1)CC2 [Compound 170]
Reply text: 79

Inquiry: // query solubility at 24 h value for entry COC[C@H]1N(c2cccc(-c3cccc(F)c3OCc3cc(C)c4c(c3)CCN(C3CCOCC3)C4)n2)C[C@@H]2C[C@@]21C(=O)O [Compound 213]
Reply text: 81.3

Inquiry: // query solubility at 24 h value for entry COC[C@H]1N(c2cccc(-c3cccc(C)c3OCc3ccc4c(c3C)CCN(C3CCOCC3)C4)n2)C[C@@H]2C[C@@]21C(=O)O [Compound 46]
Reply text: 77

Inquiry: // query solubility at 24 h value for entry CO[C@H]1CN(c2cccc(-c3cccc(C)c3OCc3cc(F)c4c(c3)CCN(C3COC3)CC4)n2)CC[C@H]1C(=O)O [Compound 274]
Reply text: 65.5

----------
Here the recorded solubility at 24 h is given for each entry.
Experiment: physchem
Conditions: pH 2.2, aqueous buffer, kinetic from dmso stock, Solubility (pH 2.2)
Provide only the numeric value, understood in µg/mL.

Example entries and their recorded answers appear below.
Inquiry: // query solubility at 24 h value for entry `Cc1ccc(OCc2ccc3c(c2C)CCN(C2CCOCC2)CC3)c(-c2csc(N3CC[C@@]4(C(=O)O)C[C@H]4C3)n2)c1`
Reply text: 120

Inquiry: // query solubility at 24 h value for entry `CO[C@@H]1CN(c2nc(-c3cccc(Cl)c3OCc3ccc4c(c3)[C@@H](C)CN(C3CCOCC3)CC4)cs2)CC[C@@H]1C(=O)O`
Reply text: 127

Note: attention shifts to another entry.
Inquiry: // query solubility at 24 h value for entry `COC[C@H]1N(c2cccc(-c3cccc(C)c3OCc3ccc4c(c3C)CCN(C3COC3)CC4)n2)C[C@@H]2C[C@@]21C(=O)O`
Reply text: 120

----------
Molecular target: human soluble guanylate cyclase alpha 1 and beta 1 subunits (sGC) (Homo sapiens (Human), UniProt Q02108+Q02153)
Experiment: sGC cellular activator assay (cGMP, HTRF), in the presence and absence of 50% human serum
Details: CHO cells stably expressing human sGC alpha 1/beta 1, preincubated with 40 microM ODQ; cGMP by HTRF; Table 2 does not state whether with or without 50% human serum
just bin them by EC50: lo (below 6 nM), mid (6 nM to below 20 nM), hi (20 nM or more)

Inquiry: Determine which band this compound sits in: CCO[C@H]1CN(c2cccc(-c3cccc(Cl)c3OCc3cc(C)c4c(c3)CCN(C3CCOCC3)C4)n2)CC[C@H]1C(=O)O [Compound 256]
Reply text: lo

Inquiry: Determine which band this compound sits in: Cc1cccc(-c2csc(N3CC[C@@]4(C(=O)O)C[C@H]4C3)n2)c1OCc1ccc2c(c1C)CCN(C1CCOC1)C2 (stereo partly shown) [Compound 88]
Reply text: lo

Inquiry: Determine which band this compound sits in: Cc1ccc(OCc2ccc3c(c2C)CCN(C2COC2)CC3)c(-c2csc(N3C[C@@H]4C[C@]4(C(=O)O)C3)n2)c1 [Compound 149]
Reply text: hi

Inquiry: Determine which band this compound sits in: CO[C@H]1CN(c2nc(-c3cccc(C)c3OCc3ccc4c(c3)C(C)(C)CN(C3CCOCC3)CC4)cs2)CC[C@H]1C(=O)O [Compound 323]
Reply text: lo

Inquiry: Determine which band this compound sits in: CO[C@H]1CN(c2cccc(-c3cccc(Cl)c3OCc3cc(C)c4c(c3)CCN(C3CCOCC3)C4)n2)CC[C@H]1C(=O)O [Compound 250]
Reply text: mid

Inquiry: Determine which band this compound sits in: COC[C@H]1N(c2cccc(-c3cccc(C)c3OCc3ccc4c(c3C)CCN(C3COC3)C4)n2)C[C@@H]2C[C@@]21C(=O)O [Compound 47]
Reply text: mid

Inquiry: Determine which band this compound sits in: CO[C@H]1CN(c2nc(-c3cccc(C)c3OCc3cc(C)c4c(c3)CCN(C3CCOCC3)C4)cs2)CC[C@H]1C(=O)O [Compound 167]
Reply text: mid

Inquiry: Determine which band this compound sits in: Cc1ccc(OCc2ccc3c(c2)CCN(C2CCC(F)(F)CC2)C3)c(-c2csc(N3C[C@H]4CC[C@@H](C3)[C@H]4C(=O)O)n2)c1 [Compound 183]
Reply text: hi

Inquiry: Determine which band this compound sits in: Cc1c(COc2ccccc2-c2ccnc(N3CC[C@@]4(C(=O)O)C[C@H]4C3)n2)ccc2c1CCN(C1CCOCC1)C2 [Compound 185]
Reply text: hi

Inquiry: Determine which band this compound sits in: COc1cc(COc2c(C)cccc2-c2cccc(N3CC[C@H](C(=O)O)[C@H](OC)C3)n2)cc2c1CN(C1CCOCC1)CC2 [Compound 249]
Reply text: mid

Further cases:
Inquiry: Determine which band this compound sits in: Cc1ccc(OCc2ccc3c(c2C)CCN(C2CCCOC2)C3)c(-c2csc(N3CC[C@@]4(C(=O)O)C[C@H]4C3)n2)c1 (stereo partly shown) [Compound 118]
Reply text: lo

Inquiry: Determine which band this compound sits in: Cc1ccc(OCc2ccc3c(c2C)CCN(CC2COCCO2)CC3)c(-c2csc(N3CC[C@@]4(C(=O)O)C[C@H]4C3)n2)c1 (stereo partly shown) [Compound 132]
Reply text: hi
